Source: patent US20210079109A1

- system under test: T1, recombinant human CD63 extracellular loop 2 expressed with a C-terminal Myc-Myc-hexahistidine (human)
- T1 construct: also called hCD63 EC loop 2-MMH; human CD63 EC loop 2-MMH
- T1 sequence (chain, as listed by the source limits assumed): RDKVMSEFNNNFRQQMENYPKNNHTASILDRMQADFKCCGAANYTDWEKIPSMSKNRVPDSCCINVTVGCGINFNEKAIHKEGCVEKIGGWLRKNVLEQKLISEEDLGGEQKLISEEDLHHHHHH
- measurement description: SPR Biacore, mAb captured, 37C
assay metric: t1/2 (min)
Report the value in min with no unit label.

Worked examples, 5 binders total:
binder | t1/2 [min]
H2M13022N (antibody, V domains shown, also called H2bM13022N) VH: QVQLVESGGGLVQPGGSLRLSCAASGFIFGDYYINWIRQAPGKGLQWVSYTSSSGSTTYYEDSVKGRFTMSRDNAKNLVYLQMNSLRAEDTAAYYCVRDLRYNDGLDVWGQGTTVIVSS VL: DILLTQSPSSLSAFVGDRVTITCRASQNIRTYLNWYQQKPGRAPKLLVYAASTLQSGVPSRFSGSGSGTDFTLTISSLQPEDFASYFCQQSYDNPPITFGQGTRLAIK | 2
H2M12385N (antibody, V domains shown, also called H2bM12385N; H2bM12385) VH: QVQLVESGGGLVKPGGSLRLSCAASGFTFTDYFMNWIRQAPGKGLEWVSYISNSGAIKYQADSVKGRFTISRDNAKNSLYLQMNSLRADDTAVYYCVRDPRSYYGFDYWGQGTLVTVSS VL: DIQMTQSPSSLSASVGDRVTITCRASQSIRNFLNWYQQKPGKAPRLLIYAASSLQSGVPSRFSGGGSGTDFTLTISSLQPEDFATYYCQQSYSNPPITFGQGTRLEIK | 1
H1M12451N (antibody, V domains shown) VH: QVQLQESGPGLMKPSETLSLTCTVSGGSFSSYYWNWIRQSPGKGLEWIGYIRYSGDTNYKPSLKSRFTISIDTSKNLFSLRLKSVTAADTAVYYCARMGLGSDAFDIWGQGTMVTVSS VL: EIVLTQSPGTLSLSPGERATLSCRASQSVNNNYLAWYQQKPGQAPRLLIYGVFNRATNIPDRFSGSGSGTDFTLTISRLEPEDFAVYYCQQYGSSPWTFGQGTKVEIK | 6
H2M12454N (antibody, V domains shown, also called H2bM12454N) VH: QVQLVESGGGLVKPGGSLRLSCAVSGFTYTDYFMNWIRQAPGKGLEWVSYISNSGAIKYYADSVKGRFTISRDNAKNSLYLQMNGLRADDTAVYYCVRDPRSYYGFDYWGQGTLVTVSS VL: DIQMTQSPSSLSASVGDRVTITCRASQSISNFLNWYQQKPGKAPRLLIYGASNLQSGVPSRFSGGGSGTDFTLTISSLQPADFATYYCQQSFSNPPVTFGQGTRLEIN | 2
H1M12386N (antibody, V domains shown) VH: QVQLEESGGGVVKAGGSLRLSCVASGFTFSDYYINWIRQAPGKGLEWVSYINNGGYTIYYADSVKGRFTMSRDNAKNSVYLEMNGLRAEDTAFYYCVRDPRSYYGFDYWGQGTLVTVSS VL: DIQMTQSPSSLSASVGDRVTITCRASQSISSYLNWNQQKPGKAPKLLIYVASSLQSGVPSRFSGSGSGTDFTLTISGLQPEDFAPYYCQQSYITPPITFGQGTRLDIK | 5

Continue with the next binder.
Endpoint output: t1/2 of H1M12388N (antibody, V domains shown) VH: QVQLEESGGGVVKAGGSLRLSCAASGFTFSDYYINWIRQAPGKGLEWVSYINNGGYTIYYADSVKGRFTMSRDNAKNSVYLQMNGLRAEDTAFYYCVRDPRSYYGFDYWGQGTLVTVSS VL: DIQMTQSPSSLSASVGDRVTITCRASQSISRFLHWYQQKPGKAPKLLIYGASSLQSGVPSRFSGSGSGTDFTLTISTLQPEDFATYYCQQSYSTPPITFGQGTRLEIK . Value?
4
